Biological target: T1, EsCas13d, nuclease-dead (Eubacterium siraeum, UniProt B0MS50, R295A;H300A;R849A;H854A)
T1 sequence: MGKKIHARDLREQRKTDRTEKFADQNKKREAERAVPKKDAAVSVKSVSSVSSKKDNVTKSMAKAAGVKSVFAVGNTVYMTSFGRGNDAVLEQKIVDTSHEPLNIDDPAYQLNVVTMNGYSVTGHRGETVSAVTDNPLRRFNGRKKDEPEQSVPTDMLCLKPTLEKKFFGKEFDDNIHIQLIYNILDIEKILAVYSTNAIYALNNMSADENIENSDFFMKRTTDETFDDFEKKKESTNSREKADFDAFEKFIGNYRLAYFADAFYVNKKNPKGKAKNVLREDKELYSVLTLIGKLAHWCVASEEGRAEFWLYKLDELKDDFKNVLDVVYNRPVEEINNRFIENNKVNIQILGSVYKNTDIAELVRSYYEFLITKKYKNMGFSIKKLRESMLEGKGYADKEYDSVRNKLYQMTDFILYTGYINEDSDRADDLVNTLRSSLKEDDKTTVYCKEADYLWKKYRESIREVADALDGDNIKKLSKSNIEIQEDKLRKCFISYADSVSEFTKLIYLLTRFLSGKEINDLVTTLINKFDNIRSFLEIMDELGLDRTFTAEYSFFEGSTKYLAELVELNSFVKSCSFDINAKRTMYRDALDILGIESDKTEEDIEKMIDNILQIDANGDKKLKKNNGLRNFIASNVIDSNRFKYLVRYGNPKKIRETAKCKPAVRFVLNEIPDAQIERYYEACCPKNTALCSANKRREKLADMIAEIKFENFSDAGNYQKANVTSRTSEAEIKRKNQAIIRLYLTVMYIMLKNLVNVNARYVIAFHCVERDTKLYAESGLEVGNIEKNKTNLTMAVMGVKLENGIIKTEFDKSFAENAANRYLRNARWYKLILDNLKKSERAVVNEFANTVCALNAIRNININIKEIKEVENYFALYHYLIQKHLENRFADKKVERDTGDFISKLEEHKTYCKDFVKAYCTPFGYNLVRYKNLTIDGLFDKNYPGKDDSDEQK
Assay: crRNA (strand 1, pre-loaded); Mg2+; 40 mM Tris-HCl pH 7.5, 150 mM NaCl, 6 mM MgCl2, 1 mM DTT, 0.1% Tween-20, 0.2 mg/ml BSA; 25 C; 10 min per concentration, then washed
Settings: tags: His6-TwinStrep-SUMO cleaved; N-terminal SNAP kept (SNAP-Surface 488); label: 3' end held by stalled T7 RNA polymerase
measure: pKd
Interpret pKd as the negative base-10 log of the concentration measured in mol/L.

Recorded results for 2 binders are shown here.
[[record]]
binder = "target 1 insU 3' of 12,insA 3' of 11 (mixed) RNA 1: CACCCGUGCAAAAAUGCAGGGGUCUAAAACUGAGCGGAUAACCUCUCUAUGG RNA 2: GGGAAUGGAUCCACAUCUACGAAUUCGUACCAUAGAGAGGUUAUAUCCGCUCACCGAGAUCGGAAGAGCACACGU"
measure = "pKd"
test_value = 7.89

[[record]]
binder = "target 2 MT 5'PFS UCU 3'PFS UUA (mixed) RNA 1: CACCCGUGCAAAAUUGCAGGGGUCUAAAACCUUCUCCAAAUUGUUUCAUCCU RNA 2: GGGAAUGGAUCCACAUCUACGAAUUCUCUAGGAUGAAACAAUUUGGAGAAGUUAAGAUCGGAAGAGCACACGU"
measure = "pKd"
test_value = 7.81


## Task Annotate the binder target 1 insG 3' of 8,insG 3' of 1 (mixed) RNA 1: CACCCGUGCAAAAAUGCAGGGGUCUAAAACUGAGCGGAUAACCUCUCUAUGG RNA 2: GGGAAUGGAUCCACAUCUACGAAUUCGUACCAUAGAGAGGUUAUGCCGCUCAGCCGAGAUCGGAAGAGCACACGU with its measured pKd.
## Result 7.87

## Task Please indicate pKd recorded for target 1 C2G,G15U (mixed) RNA 1: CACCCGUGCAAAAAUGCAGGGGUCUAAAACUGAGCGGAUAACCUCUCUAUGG RNA 2: GGGAAUGGAUCCACAUCUACGAAUUCGUACCAUAGAUAGGUUAUCCGCUGACCGAGAUCGGAAGAGCACACGU
## Result 7.48
